# measurement target: GCase (Homo sapiens, UniProt P04062)
# Construct: endogenous in cells; host or cells: HeLa cells
# Sequence (P04062 40-536): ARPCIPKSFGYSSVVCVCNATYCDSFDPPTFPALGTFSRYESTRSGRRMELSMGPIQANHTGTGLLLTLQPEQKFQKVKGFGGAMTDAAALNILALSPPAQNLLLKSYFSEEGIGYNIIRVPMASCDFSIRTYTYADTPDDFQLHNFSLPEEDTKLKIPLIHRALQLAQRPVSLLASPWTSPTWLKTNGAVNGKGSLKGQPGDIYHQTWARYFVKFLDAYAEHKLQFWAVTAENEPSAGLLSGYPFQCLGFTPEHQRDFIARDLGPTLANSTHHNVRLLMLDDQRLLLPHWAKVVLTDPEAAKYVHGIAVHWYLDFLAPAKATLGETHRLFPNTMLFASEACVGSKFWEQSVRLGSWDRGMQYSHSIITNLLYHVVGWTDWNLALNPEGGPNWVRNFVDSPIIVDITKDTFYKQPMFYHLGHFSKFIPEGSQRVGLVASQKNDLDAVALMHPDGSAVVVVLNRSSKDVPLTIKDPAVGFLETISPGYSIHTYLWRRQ
# method description: activation of GCase in a live cell PFB assay in HELA cells
# Format: cell-based
# stated conditions: activation of GCase, EC50 ranges
pEC50: −log10 of the molar value.
# pEC50 per record follows

Some solved cases for reference:
# compound, recorded result
data = [
    ("FC(F)c1ccc(N2CCCC3(C2)CN(c2cnc4cnn(CC(F)(F)F)c4n2)C3)cn1", "< 4.00"),
    ("O=C1CC2(CCN(c3cnc4cnn(CC(F)F)c4n3)CC2)CN1Cc1cc(F)ccc1F", "> 5.00"),
    ("FC(F)Cn1ncc2cnc(N3CC4(CCN(c5ccnc(C(F)(F)F)c5)C4)C3)nc21", "> 5.00"),
    ("FC(F)Cn1ncc2ncc(N3CCC4(CC3)CCN(c3cccnc3C(F)(F)F)C4)nc21", "> 5.00"),
]

Please turn your attention to the following entry.
Lookup: pEC50 / GCase (Homo sapiens, UniProt P04062) / `Cc1ncc(N2CCC3(CCN(c4cnc5cnn(CC(F)F)c5n4)CC3)C2)cn1`
> 5.00

Origin of the recorded values: patent US20250034170A1
